Attribution: PubChem BioAssay AID2577

Measured max response, listed per entry for reference.
study-target: Lysosomal alpha-glucosidase (Homo sapiens) (UniProt P10253)
assay-info: qHTS Assay for Inhibitors and Activators of N370S glucocerebrosidase as a Potential Chaperone Treatment of Gaucher Disease: Alpha-Glucosidase Counterscreen
condition-details: purified human alpha-glucosidase, 4MU-alpha-glucoside fluorescence
endpoint: max response (%)

>>> result_value("O=S(=O)(c1ccc(C(F)(F)F)cc1)N1CCN(c2nc(-c3ccccc3)nc3ccccc23)CC1")
-6.24
>>> result_value("O=S(=O)(c1ccc(Cl)cc1)N1CCN(c2nc(-c3ccccc3)nc3ccccc23)CC1")
-10.6
>>> result_value("CCOC(=O)c1ccc(S(=O)(=O)N2CCN(c3nc(-c4ccccc4)nc4ccccc34)CC2)cc1")
-5.28
>>> result_value("O=[N+]([O-])c1cccc(S(=O)(=O)N2CCN(c3nc(-c4ccccc4)nc4ccccc34)CC2)c1")
-5.2
>>> result_value("O=S(=O)(c1ccc(Br)cc1)N1CCN(c2nc(-c3ccccc3)nc3ccccc23)CC1")
-1.71
>>> result_value("CC(C)(C)c1ccc(S(=O)(=O)N2CCN(c3nc(-c4cccs4)nc4ccccc34)CC2)cc1")
-6.75
>>> result_value("O=S(=O)(c1ccc2ccccc2c1)N1CCN(c2nc(-c3cccs3)nc3ccccc23)CC1")
-7.23
>>> result_value("COc1ccc(-c2nc(N3CCN(S(=O)(=O)c4ccc(C)cc4)CC3)c3ccccc3n2)cc1")
-0.975
>>> result_value("COc1ccc(S(=O)(=O)N2CCN(c3nc(-c4ccccc4)nc4ccccc34)CC2)cc1")
-14.8

====

Some compounds, each annotated with its measured max response.
study-target: Lysosomal alpha-glucosidase (Homo sapiens)
assay-info: qHTS Assay for Inhibitors and Activators of N370S glucocerebrosidase as a Potential Chaperone Treatment of Gaucher Disease: Alpha-Glucosidase Counterscreen
condition-details: purified human alpha-glucosidase, 4MU-alpha-glucoside fluorescence
endpoint: max response (%)

>>> result_value("O=S(=O)(c1ccc(F)cc1)N1CCN(c2nc(-c3ccc(F)cc3)nc3cc(Cl)ccc23)CC1")
-3.75
>>> result_value("O=S(=O)(c1cccc(Cl)c1)N1CCN(c2nc(-c3cccs3)nc3ccccc23)CC1")
-11.5
>>> result_value("O=S(=O)(c1ccccc1C(F)(F)F)N1CCN(c2nc(-c3cccs3)nc3ccccc23)CC1")
-3.11
>>> result_value("COc1ccc(-c2nc(N3CCN(S(=O)(=O)c4ccc(F)cc4)CC3)c3ccccc3n2)cc1")
-2.56
>>> result_value("O=S(=O)(c1ccc(Cl)cc1)N1CCN(c2nc(-c3ccc(F)cc3)nc3cc(Cl)ccc23)CC1")
-5.47
>>> result_value("O=S(=O)(c1cccc(C(F)(F)F)c1)N1CCN(c2nc(-c3cccs3)nc3cc(Cl)ccc23)CC1")
-7.27
>>> result_value("O=S(=O)(c1cccc(Cl)c1)N1CCN(c2nc(-c3ccccc3)nc3ccccc23)CC1")
-3.54
>>> result_value("COc1ccc(S(=O)(=O)N2CCN(c3nc(-c4cccs4)nc4ccccc34)CC2)cc1")
-3.66
>>> result_value("O=S(=O)(c1ccc(C(F)(F)F)cc1)N1CCN(c2nc(-c3cccs3)nc3ccccc23)CC1")
-11.2
